Biological target: B2 bradykinin receptor (Homo sapiens) (UniProt P30411)
Sequence (whole entry): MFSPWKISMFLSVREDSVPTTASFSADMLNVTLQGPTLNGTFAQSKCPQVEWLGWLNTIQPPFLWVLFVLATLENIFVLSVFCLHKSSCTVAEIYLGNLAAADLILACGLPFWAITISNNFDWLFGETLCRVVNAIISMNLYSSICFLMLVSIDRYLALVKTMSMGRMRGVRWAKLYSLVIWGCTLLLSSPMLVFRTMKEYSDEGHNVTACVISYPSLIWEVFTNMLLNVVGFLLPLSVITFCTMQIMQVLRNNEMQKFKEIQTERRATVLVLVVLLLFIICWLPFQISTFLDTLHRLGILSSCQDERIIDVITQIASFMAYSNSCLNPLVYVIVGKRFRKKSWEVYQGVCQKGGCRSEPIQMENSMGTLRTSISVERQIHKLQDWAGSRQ
Assay: Percent agonistic activity in rabbit jugular vein expressing B2 receptor relative to bradykinin
Format: functional
Conditions: Oryctolagus cuniculus
Where a SMILES comes first, the peptide text is derived from it.
endpoint.label: Relative affinity (%)
Numbers only, in %.

[
  {
    "molecule": "NC(N)=NCCC[C@H](NC(=O)[C@H](Cc1ccccc1)NC(=O)[C@@H]1CCCN1C(=O)[C@H](CO)NC(=O)[C@H](Cc1ccc(N)cc1)NC(=O)CNC(=O)[C@@H]1CCCN1C(=O)[C@@H]1CCCN1C(=O)[C@@H](N)CCCN=C(N)N)C(=O)O (HELM PEPTIDE1{R.P.P.G.[Nc1ccc(C[C@H](N[*:1])C(=O)[*:2])cc1].S.P.F.R}$$$$V2.0)",
    "system.name": "B2 bradykinin receptor (Homo sapiens) (UniProt P30411)",
    "Relative affinity (%)": 3
  }
]

Item [N-]=[N+]=Nc1ccc(C[C@H](NC(=O)[C@@H]2CCCN2C(=O)[C@H](CO)NC(=O)[C@H](Cc2ccccc2)NC(=O)CNC(=O)[C@@H]2CCCN2C(=O)[C@@H]2CCCN2C(=O)[C@@H](N)CCCN=C(N)N)C(=O)N[C@@H](CCCN=C(N)N)C(=O)O)cc1 (HELM PEPTIDE1{R.P.P.G.F.S.P.[[N-]=[N+]=Nc1ccc(C[C@H](N[*:1])C(=O)[*:2])cc1].R}$$$$V2.0) has what recorded Relative affinity?
23

Origin of measurements: ChEMBL document CHEMBL1121899
